Below, each entry is listed alongside its reported Percent of Control (POC), B4.
Molecular target: HSD17B4 (Homo sapiens)
Construct: made in house
Sequence (P51659 whole entry): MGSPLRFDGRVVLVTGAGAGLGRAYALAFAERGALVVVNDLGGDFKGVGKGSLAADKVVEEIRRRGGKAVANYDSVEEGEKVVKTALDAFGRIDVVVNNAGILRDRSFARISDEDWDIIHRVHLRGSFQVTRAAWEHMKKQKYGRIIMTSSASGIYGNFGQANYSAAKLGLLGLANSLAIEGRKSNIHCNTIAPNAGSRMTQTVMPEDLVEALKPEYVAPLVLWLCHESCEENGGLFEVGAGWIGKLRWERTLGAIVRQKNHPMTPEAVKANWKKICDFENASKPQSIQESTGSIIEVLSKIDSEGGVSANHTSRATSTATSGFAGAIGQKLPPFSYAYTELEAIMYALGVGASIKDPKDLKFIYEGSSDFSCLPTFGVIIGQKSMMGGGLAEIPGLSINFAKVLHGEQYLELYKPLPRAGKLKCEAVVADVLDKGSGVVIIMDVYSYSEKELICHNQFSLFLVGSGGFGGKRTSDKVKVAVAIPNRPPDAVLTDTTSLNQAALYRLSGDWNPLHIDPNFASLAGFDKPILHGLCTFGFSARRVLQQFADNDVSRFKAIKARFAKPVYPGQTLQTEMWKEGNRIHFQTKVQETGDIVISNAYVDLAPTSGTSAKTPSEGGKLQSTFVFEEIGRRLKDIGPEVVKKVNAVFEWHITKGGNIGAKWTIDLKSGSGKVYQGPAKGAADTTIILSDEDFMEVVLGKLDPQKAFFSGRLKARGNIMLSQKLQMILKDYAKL
Assay: Steroid substrate panel against HSD17B family member B4
Format: biochemical
Conditions: substrate at 50 μM; estradiol set as 100%
Metric name: Percent of Control (POC), B4 (%)

Molecule	Metric name	Measured value
CC[C@H]1[C@@H](O)[C@@H]2[C@H](CC[C@]3(C)[C@@H]([C@H](C)CCC(=O)O)CC[C@@H]23)[C@@]2(C)CC[C@@H](O)C[C@@H]12 [6-ethylchenodeoxycholic acid]	Percent of Control (POC), B4	4.6
C[C@H](O)[C@@]1(O)CC[C@H]2[C@@H]3CC[C@@H]4C[C@H](O)CC[C@]4(C)[C@H]3CC[C@@]21C [Pregnanetriol]	Percent of Control (POC), B4	0.4
C[C@]12CC[C@@H](O)C[C@H]1CC[C@@H]1[C@@H]2C(=O)C[C@@]2(C)[C@H]1CC[C@]2(O)C(=O)CO [TetrahydroCortisone]	Percent of Control (POC), B4	0.5
C[C@]12CCC(O)C[C@@H]1CC[C@@H]1[C@@H]2CC[C@]2(C)[C@@H](O)CC[C@@H]12 (stereo partly shown) [Androstanediol]	Percent of Control (POC), B4	63.0

###

Below, each entry is listed alongside its reported HSD17B13 Enzymatic Activity Relative Light Units.
Target: human HSD17B13 (Homo sapiens)
Experiment: Substrate screening of steroid and bioactive lipid libraries against purified recombinant HSD17B13 (NADH-linked luciferase assay)
Assay type: biochemical
Conditions: Steroid Library, 50 μM steroid, 500 μM NAD+, 100 ng enzyme, 3 hours at 23° C.
Method: To understand the functional consequences of premature truncation of the HSD17B13 protein due to rs72613567:TA (the associated variant, rs72613567, is an insertion of an adenine adjacent to the donor splice site of exon six (TA allele)), the enzymatic activity of isoforms A and D was evaluated in vitro using recombinant protein and nicotinamide […] dinucleotide as cofactor. […]
Metric name: HSD17B13 Enzymatic Activity Relative Light Units (RLU)

Molecule	Reading unit	Measured value
C[C@]12CCC(=O)C[C@@H]1CC[C@@H]1[C@@H]2C(=O)C[C@]2(C)C(=O)CC[C@@H]12	RLU	228280
C[C@]12CC[C@@H](O)C[C@@H]1CC[C@@H]1[C@@H]2CC[C@]2(C)C(=O)CC[C@@H]12	RLU	158120
C[C@]12CCC(=O)C[C@@H]1CC[C@@H]1[C@@H]2CC[C@]2(C)[C@@H](OC(=O)c3ccccc3)CC[C@@H]12 [Androstanolone 17-benzoate]	RLU	217200
C[C@]12CC[C@H](O)C[C@H]1CC[C@@H]1[C@@H]2CC[C@]2(C)[C@@](O)(c3ccoc3)CC[C@]12O	RLU	187520
C[C@]12CCC(=O)C[C@@H]1CC[C@@H]1[C@@H]2CC[C@]2(C)C(=O)CC[C@@H]12	RLU	181840
C[C@@H]1C[C@@]2(C)[C@@H](CC[C@@H]3[C@@H]2CC[C@@]2(C)[C@H]3CC[C@]2(C)O)CC1=O	RLU	105920
C[C@]12CC[C@H](O)CC1=CC[C@@H]1[C@@H]2CC[C@]2(C)C(=O)CC[C@@H]12 [Dehydroepiandrosterone]	RLU	196240
C[C@]12C/C(=C/O)C(=O)C[C@@H]1CC[C@@H]1[C@@H]2CC[C@@]2(C)[C@H]1CC[C@]2(C)O	RLU	92000
C[C@]12CC[C@@H](O)C[C@@H]1CC[C@@H]1[C@@H]2[C@@H](O)C[C@]2(C)C(=O)CC[C@@H]12 [11beta-Hydroxyandrosterone]	RLU	224720
CC1(C)[C@@H](O[C@H]2O[C@H](C(=O)O)[C@@H](O)[C@H](O)[C@H]2O[C@@H]2O[C@H](C(=O)O)[C@@H](O)[C@H](O)[C@H]2O)CC[C@]2(C)[C@H]3C(=O)C=C4[C@@H]5C[C@@](C)(C(=O)O)CC[C@]5(C)CC[C@@]4(C)[C@]3(C)CC[C@@H]12	RLU	163600
C[C@H](O)[C@@]1(O)CC[C@H]2[C@@H]3CC[C@@H]4C[C@H](O)CC[C@]4(C)[C@H]3CC[C@@]21C	RLU	163920
C[C@]12CC[C@H]3[C@@H]([C@H]4C[C@H]4[C@]4(O)C[C@@H](O)CC[C@]34C)[C@@H]1[C@@H]1C[C@@H]1C2=O	RLU	183120

###

Target: human HSD17B13 (Homo sapiens, UniProt Q7Z5P4)
Sequence (Q7Z5P4 20-300): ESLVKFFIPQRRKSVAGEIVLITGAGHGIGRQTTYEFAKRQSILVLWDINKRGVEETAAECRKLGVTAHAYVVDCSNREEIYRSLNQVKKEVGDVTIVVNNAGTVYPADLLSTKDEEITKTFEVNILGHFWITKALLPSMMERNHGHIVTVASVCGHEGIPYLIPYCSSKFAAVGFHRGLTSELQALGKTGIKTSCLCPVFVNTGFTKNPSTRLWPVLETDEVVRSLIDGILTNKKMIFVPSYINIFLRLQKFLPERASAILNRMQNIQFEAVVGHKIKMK
Assay: Substrate screening of steroid and bioactive lipid libraries against purified recombinant HSD17B13 (NADH-linked luciferase assay)
Format: biochemical
Conditions: Bioactive Lipid Library, 5 μM bioactive lipid (Estradiol Control 50 μM), 500 μM NAD+, 100 ng enzyme, 3 hours at 23° C.
Counter-ions that a name gives are not always drawn.
Below, each entry is listed alongside its reported HSD17B13 Enzymatic Activity Relative Light Units.
Metric name: HSD17B13 Enzymatic Activity Relative Light Units (RLU)

Compound	Measured value
CC/C=C\C/C=C\C/C=C\CC(O)/C=C/C=C\CCCC(=O)O (racemic) [(±)9-HEPE]	699960
CCC1OC1C/C=C\C/C=C\C/C=C\C/C=C\CCCC(=O)O (racemic) [(±)17(18)-EpETE]	316240
CCCCCC(=O)/C=C/[C@@H]1[C@H](C/C=C\CCCC(=O)O)[C@@H](O)C[C@H]1O	312360
CCCCC/C=C\C=C\[C@H](O)CCCCCCCC(=O)O [9(R)-HODE]	413280
CC/C=C\C/C=C\C=C\C(O)C/C=C\C/C=C\CCCC(=O)O (racemic) [(±)11-HEPE]	791920
O=P(O)(O)OC1[C@H](O)[C@H](OP(=O)(O)O)C(OP(=O)(O)O)[C@H](OP(=O)(O)O)[C@H]1O (some centres unmarked) [(sodium salt)]	358920
C[C@@H](O)CCC[C@H](O)/C=C/[C@H]1[C@H](O)CC(=O)[C@@H]1C/C=C\CCCC(=O)O [19(R)-hydroxy Prostaglandin E2]	347280
CCCCCC(=O)CC[C@@H]1[C@H](C/C=C\CCCC(=O)O)[C@@H](O)C[C@H]1O	212520

###

Target: UniProt:Q7Z5P4
Test: Substrate screening of steroid and bioactive lipid libraries against purified recombinant HSD17B13 (NADH-linked luciferase assay)
Type: biochemical
Settings: Bioactive Lipid Library, 5 μM bioactive lipid, normalized to 50 μM estradiol after subtraction of 5% DMSO
Where a name gives a salt, the structure may show the parent alone.
Metric name: HSD17B13 Enzymatic Activity Percent Estradiol Control (%)

Compound	Measured value
CCCCC/C=C\C/C=C\C/C=C\C=C\[C@@H]1CCCC(=O)O1 [5(S)-HETE lactone]	0.12
CCCCC/C=C\C[C@@H](/C=C/C=C\C/C=C\CCCC(=O)O)OO [12(S)-HpETE]	−6.47
CCCCC[C@@H](O)/C=C/C=C\CCCCCCCCCC(=O)O [15(R)-HEDE]	117.20
O=P(O)(O)OC1[C@@H](OP(=O)(O)O)[C@H](O)C(O)[C@@H](O)[C@H]1OP(=O)(O)O (some centres unmarked) [(sodium salt)]	5.70
O=C(O)CCC/C=C\C/C=C\C/C=C\C/C=C\CCCCCO [20-HETE]	0.57
CCCCC[C@H](O)/C=C/[C@H]1C(=O)CC(=O)[C@@H]1CCCCCCC(=O)O [Prostaglandin K1]	−4.74
CCCCC[C@H](O)/C=C/[C@H]1CC2CC(C2)[C@@H]1C/C=C\CCCC(=O)O [Carbocyclic Thromboxane A2]	2.05
CC/C=C\C[C@H](O)/C=C/C=C\CCCCCCCC(=O)O [13(S)-HOTrE]	17.95
CC/C=C\C/C=C\CC(O)/C=C/C=C\C/C=C\CCCC(=O)O (racemic) [(±)12-HEPE]	35.30
CCCCCC(=O)/C=C/C=C\CCCCCCCCCC(=O)O [15-OxoEDE]	−1.88
CCCCC[C@H](O)/C=C/C=C\C/C=C\C/C=C\CCCC(=O)O [15(S)-HETE]	24.49
CC/C=C\C/C=C\C/C=C\CC(O)/C=C/C=C\CCCC(=O)O (racemic) [(±)9-HEPE]	30.72
CCCCC/C=C\C[C@@H]1[C@H](/C=C/C(O)CCCC(=O)O)[C@@H](O)C[C@H]1O (stereo partly drawn) [5-iPF2α-VI]	0.80
O=C(CCC/C=C\C/C=C\C/C=C\C/C=C\CCCCCO)NCCO [20-HETE Ethanolamide]	41.89
CCCCC[C@H](O)/C=C/[C@H]1OC(O)C[C@H](O)[C@@H]1CCCCC(=O)O (some centres unmarked) [2,3-dinor Thromboxane B1]	3.01
CCCCC[C@H](O)C/C=C1/C(=O)C=C[C@@H]1C/C=C\CCCC(=O)O [Δ12-Prostaglandin J2]	4.76
CC(C)=CCC[C@]1(C)[C@@H](CC=C(C)C)C[C@@]2(CC=C(C)C)C(=O)[C@]1(C(=O)C(C)C)C(=O)C(CC=C(C)C)=C2O [Hyperforin]	−22.74
